Target: UniProtKB P43220
Sequence (P43220 24-463): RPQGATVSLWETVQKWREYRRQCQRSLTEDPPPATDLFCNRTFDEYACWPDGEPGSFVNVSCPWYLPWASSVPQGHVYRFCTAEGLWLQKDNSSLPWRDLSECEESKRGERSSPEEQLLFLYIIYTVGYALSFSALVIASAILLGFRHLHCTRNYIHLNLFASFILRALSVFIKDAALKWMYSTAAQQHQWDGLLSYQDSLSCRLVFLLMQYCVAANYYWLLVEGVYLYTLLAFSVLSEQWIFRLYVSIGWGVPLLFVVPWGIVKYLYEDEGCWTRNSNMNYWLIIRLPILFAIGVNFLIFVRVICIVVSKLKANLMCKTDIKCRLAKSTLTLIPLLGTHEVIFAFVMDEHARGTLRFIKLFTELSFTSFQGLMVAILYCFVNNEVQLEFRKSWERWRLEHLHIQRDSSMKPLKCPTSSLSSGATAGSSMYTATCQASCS
Assay: GLP-1R Activation - cAMP Assay
Format: cell-based
Details: cAMP increase in CHO cells stably expressing GLP-1R; each compound run on one of the two cAMP assays (Assay 1 or Assay 2, not specified)
pEC50: −log10 of the molar value.
measured.property: pEC50

molecule: CC1(C)COC[C@H]1n1c(Cc2cc(F)c(-c3cccc(OCc4ccc(Cl)cc4)n3)cc2F)nc2ccc(C(=O)O)cc21 (single isomer, unassigned) [Example 385A]
measured.property: pEC50
recorded.result: 10.05
//
molecule: CC1(C)OCCC1n1c(Cc2cc(F)c(-c3cccc(OCc4ccc(C#N)cc4F)n3)cc2F)nc2ccc(C(=O)O)cc21 (stereo not shown)
measured.property: pEC50
recorded.result: 8.36
//
molecule: CC1(C)COC[C@H]1n1c(Cn2cc(F)c(-c3ccc(F)c(OCc4ccc(Cl)cc4F)n3)cc2=O)nc2c(F)cc(C(=O)O)cc21
measured.property: pEC50
recorded.result: 9.84
//
molecule: Cc1cc(Cc2nc3c(F)cc(C(=O)O)cc3n2[C@@H]2COCC2(C)C)c(F)cc1-c1ccnc(OCc2ccc(C#N)cc2F)n1
measured.property: pEC50
recorded.result: 9.77
//
molecule: N#Cc1ccc(COc2cccc(-c3cc(F)c(Cc4nc5ccc(C(=O)O)cc5n4[C@@H]4COC[C@@H]4C4CC4)cc3F)n2)c(F)c1
measured.property: pEC50
recorded.result: 9.45
//
molecule: N#Cc1ccc(COc2cccc(-c3cc(F)c(Cc4nc5ccc(C(=O)O)cc5n4[C@@H]4COC[C@H]4C4CC4)cc3F)n2)c(F)c1
measured.property: pEC50
recorded.result: 10.21
//
molecule: CC1(C)COC[C@H]1n1c(Cc2cc(F)c(-c3cccc(OCc4ccc(OCC(F)(F)F)nc4)n3)cc2F)nc2ccc(C(=O)O)cc21
measured.property: pEC50
recorded.result: 9.23
//
molecule: COCCn1c(Cc2c(F)cc(-c3ccc(F)c(OCc4cnc(-n5ccnn5)cc4Cl)n3)c(F)c2F)nc2c(F)cc(C(=O)O)cc21
measured.property: pEC50
recorded.result: 10.38
//
molecule: COC[C@H]1COC[C@H]1n1c(Cc2cc(F)c(-c3cccc(OCc4ccc(C#N)cc4F)n3)cc2F)nc2ccc(C(=O)O)cc21 (racemic) [Example 184]
measured.property: pEC50
recorded.result: 9.80
//
molecule: COCCn1c(Cc2cc(F)c(-c3cccc(OCc4ccc(-n5ccnn5)nc4)n3)cc2F)nc2c(F)cc(C(=O)O)cc21
measured.property: pEC50
recorded.result: 9.29
//
molecule: COC[C@H]1COC[C@H]1n1c(Cc2cc(F)c(-c3cccc(OCc4ccc(C(F)(F)F)cc4)n3)cc2F)nc2ccc(C(=O)O)cc21
measured.property: pEC50
recorded.result: 9.58
//
molecule: CO[C@@]1(C)COC[C@@H]1n1c(Cc2cc(F)c(-c3cccc(OCc4ccc(C#N)cc4F)n3)cc2F)nc2ccc(C(=O)O)cc21 (single isomer, unassigned)
measured.property: pEC50
recorded.result: 8.94
//
molecule: COCCn1c(Cc2cc(F)c(-c3ccc(F)c(OCc4ccc(C#N)cc4)n3)cc2F)nc2ccc(C(=O)O)c(F)c21
measured.property: pEC50
recorded.result: 8.93
//
molecule: CC1(C)COC[C@H]1n1c(Cc2ccc(-c3ccc(F)c(OCc4ccc(-n5ccnn5)cc4F)n3)cc2F)nc2c(F)cc(C(=O)O)cc21
measured.property: pEC50
recorded.result: 9.72
//
molecule: COC[C@H]1COC[C@H]1n1c(Cc2cc(F)c(-c3ccc(F)c(OCc4ccc(Cl)cc4)n3)cc2F)nc2ccc(C(=O)O)cc21
measured.property: pEC50
recorded.result: 10.36
//
molecule: CC1(C)COC[C@H]1n1c(Cc2cc(F)c(-c3ccc(F)c(OCc4ccc(-n5ccnn5)cc4)n3)cc2F)nc2c(F)cc(C(=O)O)cc21
measured.property: pEC50
recorded.result: 10.68
//
molecule: CC1(C)COC[C@H]1n1c(Cc2cc(F)c(-c3ccc(F)c(OCc4ccc(-n5ccnn5)cc4F)n3)cc2F)nc2ccc(C(=O)O)cc21
measured.property: pEC50
recorded.result: 10.41
//
molecule: CC1(C)COC[C@H]1n1c(Cc2cc(F)c(-c3cccc(OCc4ccccc4F)n3)cc2F)nc2ccc(C(=O)O)cc21
measured.property: pEC50
recorded.result: 9.60
//
molecule: CC1(C)COC[C@H]1n1c(Cc2c(F)cc(-c3ccc(F)c(OCc4ccc(C#N)cc4F)n3)cc2F)nc2ccc(C(=O)O)cc21
measured.property: pEC50
recorded.result: 9.46
//
molecule: CC1(C)COC[C@H]1n1c(Cc2cc(F)c(-c3ccnc(OCc4ccc(C(F)(F)F)cc4F)n3)cc2F)nc2ccc(C(=O)O)cc21
measured.property: pEC50
recorded.result: 10.02
//
molecule: COCCn1c(Cc2cc(F)c(-c3cccc(OCc4ccc(-c5cnn(C(F)F)c5)cc4F)n3)cc2F)nc2ccc(C(=O)O)cc21
measured.property: pEC50
recorded.result: 9.35
//
molecule: CC1(C)COC[C@H]1n1c(Cc2cc(F)c(-c3ccc(F)c(OCc4ccc(Cl)cc4)n3)cc2F)nc2c(Cl)cc(C(=O)O)cc21
measured.property: pEC50
recorded.result: 9.14
//
molecule: CC1(C)COC[C@H]1n1c(Cc2c(F)cc(-c3ccc(F)c(OCc4ccc(C#N)cc4F)n3)cc2F)nc2c(F)cc(C(=O)O)cc21
measured.property: pEC50
recorded.result: 9.29
//
molecule: COCCn1c(Cc2cc(F)c(-c3cccc(OCc4cnc(-n5ccnn5)cc4Cl)n3)cc2F)nc2ccc(C(=O)O)cc21
measured.property: pEC50
recorded.result: 9.52
//
molecule: Cc1cc(Cc2nc3ccc(C(=O)O)cc3n2[C@@H]2COCC2(C)C)c(Cl)cc1-c1ccnc(OCc2ccc(C#N)cc2F)n1
measured.property: pEC50
recorded.result: 9.08
